test system: SF-268 CNS; test: NCI tumour cell line growth inhibition, 48 h
REPORTED ENDPOINT: TGI

COMPOUND	REPORTED ENDPOINT	OBSERVED VALUE
Cn1c(=O)c2c(nc3n(CCCCl)c(=O)ccn23)n(C)c1=O	TGI	> 100 µM
CN1Cc2cc3cc4c(cc3nc2N(C)C1)OCCO4	TGI	> 100 µM
COc1cc(/C=C\c2cc(OC)c(OC)c(OC)c2)cc(NC(=O)/C=C/c2cc(OC)c(OC)c(OC)c2)c1OC	TGI	> 100 µM
O=c1[nH]nc(-c2ccccc2)n1Nc1ccccc1	TGI	> 100 µM
COc1ncnc2c(-c3ccccc3)cn(COCc3ccccc3)c12	TGI	> 100 µM
COc1cc(C2=C(c3cc(OC)c4ccccc4c3OC)C(=O)c3ccccc3C2=O)c(OC)c2ccccc12	TGI	> 100 µM
C=C1C(=O)O[C@H]2[C@H]1CC/C(COC(=O)CSCSCC(=O)OC/C1=C/CC[C@@]3(C)O[C@H]3[C@H]3OC(=O)C(=C)[C@@H]3CC1)=C\CC[C@@]1(C)O[C@@H]21	TGI	4.31 µM
C=C(CN1C(=O)CN(C)C1=O)c1ccc(C(=O)Nc2ccccc2N)cc1	TGI	> 100 µM
CC(=O)OCCCC(NC(=O)OC(C)(C)C)C(=O)NC(CCCOC(C)=O)C(=O)NC(Cc1ccc([N+](=O)[O-])cc1)C(=O)NCC(=O)OCc1ccccc1 (centres undefined)	TGI	35.6 µM

* * *

tested on: SNB-78 CNS; assay: NCI tumour cell line growth inhibition, 48 h
Entries annotated with measured TGI
REPORTED ENDPOINT: TGI

> print(dat)
                                    compound  reported.endpoint  observed.value
 1  BrC1=CCC23CC=C(Br)[C@H]4CC2(COC3)C[C@@H]1O4 (stereo not given in full)                TGI         93.6 µM
 2                     CCCCCCCCCCCc1nnc(N)o1                TGI        > 100 µM
 3  NC(=O)C(=O)N/N=C1\C(=O)N(c2ccc(Cl)cc2Cl)C(=O)C1C(=O)Nc1ccc(Cl)cc1Cl (stereo not given)                TGI        > 100 µM
 4  COC(=O)NC(=O)c1cn(C2OC(CO)C(O)C2O)c(=O)[nH]c1=O (stereo not given)                TGI        > 100 µM
 5  [N-]=[N+]=NC(CCl)c1cn([C@H]2C[C@H](O)[C@@H](CO)O2)c(=O)[nH]c1=O (stereo not given in full)                TGI        > 100 µM
 6  CCN(CC)c1c(C(=O)/C=C/c2ccc(Cl)cc2)c(-c2ccccc2)nn(C)c1=O                TGI         5.93 µM
 7  COc1ccc(C23C(=O)c4ccccc4N2O[C@H]2C(=O)N(c4ccccc4)C(=O)[C@H]23)cc1 (stereo not given in full)                TGI        > 100 µM
 8  O=C(COc1ccc(Cl)cc1)N1N=C(c2ccc(Cl)cc2)CC1(O)c1ccccc1 (stereo not given)                TGI       > 56.7 µM
 9  CCOC(=O)C12CCCC1(O)N(NC(=O)OC(C)(C)C)C(C)=C2C(=O)OC (stereo not given)                TGI        > 100 µM
10  CC1(C)O[C@H]2[C@H](O)C[C@](O)(CO)C[C@H]2O1                TGI        > 100 µM

* * *

Entries annotated with measured TGI
test system: K-562 leukemia; experiment: NCI tumour cell line growth inhibition, 48 h
REPORTED ENDPOINT: TGI

> print(dat)
                                   compound  observed.value
1      C/C(=N\NC(=S)N1CC2CCC(CC2)C1)c1nccs1          9.9 µM
2   COc1ncnc2c(-c3ccccc3)cn(COCc3ccccc3)c12        > 100 µM
3  CC(=O)N1C(OC(C)C)CC(C)N1c1ccccc1 (stereo unspecified)         > 10 µM
4  O=C(c1ccccc1)n1c(Cc2ccccc2)nc2cc(C34CC5CC(CC(C5)C3)C4)ccc21        > 100 µM
5  CCc1cc2c(c3c1CCC3=O)CC1(Cc3ccc(C)cc3C1)C2 (stereo unspecified)        > 100 µM
6  O=C(Oc1cccc(F)c1OC(=O)c1cccc(O)c1)c1cccc(O)c1        > 100 µM

* * *

system: MDA-MB-231 breast; test: NCI tumour cell line growth inhibition, 48 h
REPORTED ENDPOINT: GI50

> print(dat)
                                    compound  observed.value
 1  CCCCON(OC(=O)c1ccc2ccccc2c1)C(=O)c1ccccc1        > 100 µM
 2  COc1ccc(/C=C/C(=O)c2cc(OC)c(OC)c(OC)c2)cc1OCc1cn(Cc2ccc(F)cc2)nn1         2.84 µM
 3  O=C(CCCCCCNC(=O)c1cnc(N(c2ccccc2)c2ccccc2)nc1)NO         2.99 µM
 4  Oc1c(-c2nnc(-c3ccccc3Cl)o2)sc2nnc(-c3ccccc3)c(-c3ccccc3)c12         4.08 µM
 5  N=C1C(c2nc3ccccc3s2)=C(O)CN1c1ccc(F)c(Cl)c1         15.9 µM
 6  C=CCN=c1sc2c(n1NC(=O)c1cc3ccc1CCc1ccc(cc1)CC3)C(=O)c1ccccc1C2=O         1.27 µM
 7  C=C1C(=O)O[C@H]2[C@H]1CC/C(CNC(=O)/C=C/c1cc(OC)c(OC)c(OC)c1)=C\CC[C@@]1(C)O[C@@H]21         3.01 µM
 8  O=c1[nH]nnc2c1ncn2C1OC(CO)C(O)C1O (stereo not given)         4.91 µM
 9                    ClCc1cccc2c(CCl)cccc12           13 µM
10  CCOC(=O)Nc1ccc2c(c1)/C(=N\NC(N)=S)c1ccccc1-2         3.48 µM

* * *

tested on: OVCAR-3 ovarian; test: NCI tumour cell line growth inhibition, 48 h; in the data active means GI50 below about 0.43 µM; inactive means the rest
Labels: t (active), f (inactive)

> print(dat)
                                   molecule  assigned.label
1  CCN1C(=O)N(CC)C2C1NN=c1s/c(=C\c3cccc(F)c3)c(=O)n12 (stereo unspecified)               t
2  C=C(C)C(O)CCC1(C)C=Cc2c(c(C)cc3c2[nH]c2ccccc23)O1 (stereo unspecified)               f
3  Oc1c(-c2nnc(-c3ccccc3Cl)o2)sc2nnc(-c3ccccc3)c(-c3ccccc3)c12               f
4  O=C(CCCCCCNC(=O)c1cnc(N(c2ccccc2)c2ccccc2)nc1)NO               f
5        Cc1nnn[n-]1.N.N.N.N.N.[Cl-].[Co+3]               f
6              O=c1[nH]c(=O)c2cn[nH]c2[nH]1               f

* * *

tested on: HCT-116 colon; experiment: NCI tumour cell line growth inhibition, 48 h
REPORTED ENDPOINT: TGI

> print(dat)
                              smiles.string  reported.endpoint  observed.value
1  CN1CN(c2ccccc2)C2(CCN(Cc3csc4ccccc34)CC2)C1=O                TGI         19.2 µM
2  COc1ccc(OC)c(-c2nc3n(c2/C=C2/C(=O)Nc4ccccc42)CCS3)c1                TGI        > 100 µM
3  COc1ccc(CCCCl)c(C2=NCCc3cc(OC)c(OC)cc32)c1                TGI        > 100 µM
4  CN(CCNC(=O)c1nn(-c2ccccc2)c2c1Cc1ccccc1-2)CCNC(=O)c1nn(-c2ccccc2)c2c1Cc1ccccc1-2                TGI         3.13 µM
5  N#CC1(C#N)C2(c3ccccc3)OC(c3ccccc3)(c3cc4ccccc4cc32)C1(C#N)C#N                TGI           20 µM

* * *

test system: K-562 leukemia; assay: NCI tumour cell line growth inhibition, 48 h; in the data active = GI50 below about 0.43 µM; inactive = the rest
Where a SMILES comes first, the peptide text is derived from it. [ ]: non-standard residue; d: D form. pGlu = O=C1CC[CH](C(=O)O)N1
Labels: y (active), n (inactive)

COMPOUND	ASSIGNED LABEL
OC(Cc1ccncc1)C(Cl)(Cl)Cl (stereo not drawn)	n
CC1(C)C2CCC13C(=O)C1OC3(C2)C2C(=O)c3cc4ccccc4cc3C(=O)C12 (stereo not drawn)	n
CCNC(=O)C1CCCN1C(=O)C(CCCN=C(N)N)NC(=O)C(CC(C)C)NC(=O)C(CC(C)C)NC(=O)C(Cc1ccc(O)cc1)NC(=O)C(CO)NC(=O)C(Cc1c[nH]c2ccccc12)NC(=O)C(Cc1cnc[nH]1)NC(=O)C1CCC(=O)N1 (stereo not drawn) ([pGlu]HWSYLLRP-NHEt; configuration not given here)	n
N#Cc1ccc(OCc2nc(N)nc(N)c2-c2ccc(Cl)c(Cl)c2)cc1	y
C/C=C(\C)C(=O)NC1=CC[C@@]2(C)C(=CCC3C2CC[C@@]2(C)C3CC[C@@H]2C(C)N(C)C)C1=O (stereo partly drawn)	n
COc1ncnc2c(-c3ccccc3)cn(COCc3ccccc3)c12	n
ClCc1cccc2c(CCl)cccc12	n
N=C1C(c2nc3ccccc3s2)=C(O)CN1c1ccc(F)c(Cl)c1	n
